System: P. falciparum parasite line, 3D7
Test: microbe, parasite or virus in culture
Assay type: cell-based, Plasmodium falciparum
Conditions: Plasmodium falciparum; P. falciparum 3D7 blood-stages, 0.1% initial parasitemia, 96 hours post-treatment
Measure: pIC50
Just the number, please; pIC50 means minus log10 of the concentration in mol/L.

So what pIC50 did CN(C)C(=N)N=C(N)N get with P. falciparum parasite line, 3D7?
3.06

Hello, the source for this data is patent US20190054096A1, in case you need it.
